These data points were gathered from PubChem BioAssay AID330.

# System: P388 leukemia ip, CD2F1 mice, survival T/C
# Protocol details: NCI In Vivo Anticancer Drug Screen. Data for tumor model P388 Leukemia (intraperitoneal) in CD2F1 (CDF1) mice
# Measurement setup: endpoint: median survival time; dose: 100.0 mg/kg/injection; schedule: Q01DX005 (ip); vehicle: Klucel (hydroxypropylcellulose) (HPC); higher = longer survival
Toxic doses and inconclusive results are not listed.
Recorded T/C by entry

Sample records with T/C:
INSERT INTO results (compound, measured_property, meas_value) VALUES
  ('CCCN(CCC)CC(=O)NC1c2ccccc2Oc2ccccc21', 'T/C', '101 % of control'),
  ('c1ccc(CSCCSCc2ccccn2)nc1', 'T/C', '109 % of control'),
  ('O=C1c2ccccc2C(=O)N1/N=C/c1ccc(O)cc1', 'T/C', '99 % of control'),
  ('COC(=O)CCSC(=S)Nc1ccc(Br)cc1', 'T/C', '100 % of control'),
  ('N=C(N)c1ccc(N=Nc2cc(N=Nc3ccc(C(=N)N)cc3)c(O)cc2O)cc1', 'T/C', '92 % of control'),
  ('COc1cc(OC)c2c(c1)C(C1c3cc(C)cc(O)c3C(=O)c3c(OC)cc(OC)cc31)c1cc(C)cc(O)c1C2=O (centres undefined)', 'T/C', '92 % of control'),
  ('Cc1cc2cc3c4c(nn5nnnc5c4c2o1)-c1ccccc1CC3', 'T/C', '86 % of control'),
  ('COc1cc(/C=N\NC(=O)C(C)SC(C)C(=O)N/N=C/c2cc(OC)c(OC)c(OC)c2)cc(OC)c1OC (centres undefined)', 'T/C', '88 % of control'),
  ('O=C(O)CSc1nnc(Cc2cccc3ccccc23)n1-c1ccccc1', 'T/C', '102 % of control'),
  ('O=C1Nc2ccccc2/C1=N/n1c(-c2ccccc2)nc2ccccc2c1=O', 'T/C', '90 % of control');

For this compound ( O=C(Nc1ccc(N=C(NC2CCCCC2)c2ccccc2)cc1)c1ccc(C(=O)Nc2ccc(N=C(NC3CCCCC3)c3ccccc3)cc2)cc1 ), measured T/C is 91 % of control

Record summary for CC(=O)C(CCCn1c(=O)c2c(ncn2C)n(C)c1=O)C(C)=O : reported T/C = 98 % of control

Entry Nc1ccc(-c2ccc(N=C(/C=N/O)NO)cc2)cc1 — recorded T/C = 100 % of control

Entry Cc1ccc(NC(=O)NCc2ccco2)cc1[N+](=O)[O-] — recorded T/C = 96 % of control
